Values were extracted from patent US20170313674A1.

- System: mitochondrial ATP production on non-small cell lung carcinoma cell lines NCI-H460
- run description: Mitochondrial ATP analysis (Cell Titer Glo) in NCI-H460 cells
- Format: cell-based
- study conditions: 1-hour incubation, with sodium iodoacetate (100 μM), concentration inhibiting 50% of mitochondrial ATP production, read-out: IC50 (mito ATP)
pIC50: −log10 of the molar value.
property: pIC50

Here's what some known entries look like.
INSERT INTO measurements (molecule, measured_on, property, reported) VALUES
  ('COc1ccc(C(O)COc2ccc(-c3csc(-c4ccc(OCC(O)c5ccc(OC)c(OC)c5)cc4)n3)cc2)cc1OC (single isomer, unassigned) [Compound I-23]', 'mitochondrial ATP production on non-small cell lung carcinoma cell lines NCI-H460', 'pIC50', 6.71),
  ('COc1ccc(C(O)C(C)Oc2ccc(-c3csc(-c4ccc(OC(C)C(O)c5ccc(OC)c(OC)c5)cc4)n3)cc2)cc1OC (single isomer, unassigned) [Compound I-31]', 'mitochondrial ATP production on non-small cell lung carcinoma cell lines NCI-H460', 'pIC50', 6.52);

a: COc1ccc(C(O)COc2ccc(-c3nc(-c4ccc(OC(C)(C)C(O)c5ccc(OC)c(OC)c5)cc4)cs3)cc2)cc1OC (single isomer, unassigned) [Compound I-68]
b: COc1ccc(C(O)COc2ccc(-c3csc(-c4ccc(OCC(O)c5ccc(OC)c(OC(F)F)c5)cc4)n3)cc2)cc1OC(F)F (single isomer, unassigned) [Compound I-50]
c: COc1ccc(C(O)COc2ccc(-c3nc(-c4ccc(OCC(O)c5ccc(OC)c(OC)c5)cc4)c(C)s3)cc2)cc1OC (single isomer, unassigned) [Compound I-11]
In: Returns the items ordered by pIC50, from maximum to minimum. Ranked list of labels, please, in the requested order.
Out: a, c, b
(a: 7.48, c: 6.25, b: 5.87)
